target: PpKAI2L-K (Physcomitrium patens)
Sequence (A9S299 1-270): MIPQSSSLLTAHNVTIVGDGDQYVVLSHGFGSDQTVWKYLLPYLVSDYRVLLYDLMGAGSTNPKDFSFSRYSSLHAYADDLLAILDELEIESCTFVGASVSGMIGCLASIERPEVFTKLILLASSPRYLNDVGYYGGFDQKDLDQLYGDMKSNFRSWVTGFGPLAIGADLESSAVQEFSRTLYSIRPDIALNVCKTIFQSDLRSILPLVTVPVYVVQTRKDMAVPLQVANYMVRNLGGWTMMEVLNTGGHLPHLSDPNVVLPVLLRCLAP
PARAMETER MEASURED: pKd
Friendly reminder that pKd comes from taking -log10 of the concentration in mol/L.

Which pKd is reported for this molecule? CC1=C[C@H](O/C=C2/C(=O)O[C@@H]3c4ccccc4C[C@H]23)OC1=O [(+)-GR24]
3.97

// query pKd value for entry CC1=C[C@@H](O/C=C2/C(=O)O[C@H]3c4ccccc4C[C@@H]23)OC1=O [(-)-GR24]
4.39

====

Target: AtKAI2 (Arabidopsis thaliana)
Sequence (Q9SZU7 1-270): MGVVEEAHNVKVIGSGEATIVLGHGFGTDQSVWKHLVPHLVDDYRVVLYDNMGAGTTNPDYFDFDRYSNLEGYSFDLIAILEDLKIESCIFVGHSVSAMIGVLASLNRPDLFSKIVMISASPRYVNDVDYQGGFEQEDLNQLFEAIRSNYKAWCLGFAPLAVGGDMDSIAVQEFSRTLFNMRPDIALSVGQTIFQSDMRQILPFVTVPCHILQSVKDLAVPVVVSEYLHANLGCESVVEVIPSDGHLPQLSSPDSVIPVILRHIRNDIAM
PARAMETER MEASURED: pKd
Formally, pKd is defined as -log10 of the concentration c, with c in mol/L.

Give the measured pKd of CC1=C[C@@H](O/C=C2/C(=O)O[C@H]3c4ccccc4C[C@@H]23)OC1=O [(-)-GR24] .
4.35

====

PARAMETER MEASURED: Kd

What Kd appears in the records for this compound with PpKAI2L-E (Physcomitrium patens, UniProt A9ST85)? CC1=C[C@@H](O/C=C2/C(=O)O[C@H]3c4ccccc4C[C@@H]23)OC1=O [(-)-GR24]
Sequence (A9ST85 1-270): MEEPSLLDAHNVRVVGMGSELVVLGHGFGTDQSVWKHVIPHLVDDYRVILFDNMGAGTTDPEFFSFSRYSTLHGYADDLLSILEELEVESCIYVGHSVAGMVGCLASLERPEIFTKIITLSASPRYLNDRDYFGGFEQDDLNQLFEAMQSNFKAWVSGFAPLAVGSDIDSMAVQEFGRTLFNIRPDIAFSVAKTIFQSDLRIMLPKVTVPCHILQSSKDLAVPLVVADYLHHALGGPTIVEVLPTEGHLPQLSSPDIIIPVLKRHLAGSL
39 µM

====

Biological target: PpKAI2L-D (Physcomitrium patens, UniProt A9SSF6)
Sequence (A9SSF6 1-271): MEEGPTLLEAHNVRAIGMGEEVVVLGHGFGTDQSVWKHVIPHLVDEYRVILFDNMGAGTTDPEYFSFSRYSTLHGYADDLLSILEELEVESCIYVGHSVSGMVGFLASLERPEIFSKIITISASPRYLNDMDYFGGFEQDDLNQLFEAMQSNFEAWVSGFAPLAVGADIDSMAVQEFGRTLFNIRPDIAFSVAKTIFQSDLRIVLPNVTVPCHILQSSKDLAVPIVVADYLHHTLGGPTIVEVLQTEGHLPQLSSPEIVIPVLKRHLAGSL
PARAMETER MEASURED: Kd (µM)
The figure you give is taken to be in µM; do not add the unit.

Fill in: Kd of CC1=C[C@@H](O/C=C2/C(=O)O[C@H]3c4ccccc4C[C@@H]23)OC1=O [(-)-GR24] is ___
92
